- Tested on: Nonstructural protein 5A (Hepatitis C virus), Q5L478 [Y93H]
- Sequence (Q5L478 entry or part of it Y93H): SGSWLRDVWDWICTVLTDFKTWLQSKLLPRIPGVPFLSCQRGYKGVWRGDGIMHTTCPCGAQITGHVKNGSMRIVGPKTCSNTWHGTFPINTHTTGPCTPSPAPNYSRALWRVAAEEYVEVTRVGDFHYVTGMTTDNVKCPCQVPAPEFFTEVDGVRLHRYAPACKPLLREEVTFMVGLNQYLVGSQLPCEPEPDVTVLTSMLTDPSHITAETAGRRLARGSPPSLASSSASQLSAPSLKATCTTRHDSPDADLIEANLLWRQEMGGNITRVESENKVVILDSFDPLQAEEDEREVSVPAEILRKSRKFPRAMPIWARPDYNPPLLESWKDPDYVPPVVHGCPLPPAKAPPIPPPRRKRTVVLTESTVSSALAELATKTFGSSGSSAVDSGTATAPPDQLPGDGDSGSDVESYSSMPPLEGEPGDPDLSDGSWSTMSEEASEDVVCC
- Assay summary: Inhibition of HCV genotype 1a NS5A Y93H mutant assessed as reduction in viral RNA level by cell based real time PCR method
- Condition label: Hepatitis C virus subtype 1a
Metric: EC90 (nM)
All answers are understood in nM, so give the number only.

## Input What does the record list as EC90 for CCN(CC)[C@@H](C(=O)N1CCC[C@H]1c1ncc(-c2ccc3c(c2)cc2n3[C@H](c3ccccc3)Oc3cc(-c4cnc([C@@H]5CCCN5C(=O)[C@@H](NC(=O)OC)C(C)C)[nH]4)ccc3-2)[nH]1)c1ccccc1 ?
## Output 44

---

- Target desc: Nonstructural protein 5A (Hepatitis C virus)
- Sequence (whole entry): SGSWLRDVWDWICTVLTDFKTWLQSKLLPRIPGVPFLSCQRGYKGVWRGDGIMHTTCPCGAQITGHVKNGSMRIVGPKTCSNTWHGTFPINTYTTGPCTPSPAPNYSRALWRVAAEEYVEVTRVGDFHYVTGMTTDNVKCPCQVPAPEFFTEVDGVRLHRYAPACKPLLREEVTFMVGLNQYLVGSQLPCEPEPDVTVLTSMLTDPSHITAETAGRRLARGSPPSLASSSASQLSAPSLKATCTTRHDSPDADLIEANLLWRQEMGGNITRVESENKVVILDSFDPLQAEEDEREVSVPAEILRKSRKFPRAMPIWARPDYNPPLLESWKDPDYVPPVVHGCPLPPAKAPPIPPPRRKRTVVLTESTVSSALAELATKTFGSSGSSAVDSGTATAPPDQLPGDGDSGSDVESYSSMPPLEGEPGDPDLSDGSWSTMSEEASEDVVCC
- Assay summary: Inhibition of wild type HCV genotype 1a NS5A assessed as reduction in viral RNA level by cell based real time PCR method
- Condition label: Hepatitis C virus subtype 1a
Reported EC90 values for the following molecules.
All answers are understood in nM, so give the number only.

- Chemical smiles: "COC(=O)N[C@H](C(=O)N1CCC[C@H]1c1ncc(-c2ccc3c(c2)O[C@@H](c2ccccc2)n2c-3cc3cc(-c4cnc([C@@H]5CCCN5C(=O)[C@@H](NC(=O)OC)C5CCCC5)[nH]4)ccc32)[nH]1)C1CCCC1"
  Target desc: "Nonstructural protein 5A (Hepatitis C virus)"
  Uom: "nM"
  Test value: 0.014

## Input What does the record list as EC90 for COC(=O)N[C@H](C(=O)N1CCC[C@H]1c1ncc(-c2ccc3c(c2)O[C@@H](c2ccccc2)n2c-3cc3cc(-c4cnc([C@@H]5CCCN5C(=O)[C@@H](NC(=O)OC)[C@@H](C)OC)[nH]4)ccc32)[nH]1)[C@@H](C)OC ?
## Output 0.019

---

- Tested on: Nonstructural protein 5A (Hepatitis C virus), Q5L478 [UNDEFINED MUTATION]
- Assay summary: Inhibition of HCV genotype 1a NS5A L31V mutant assessed as reduction in viral RNA level by cell based real time PCR method
- Condition label: Hepatitis C virus subtype 1a
Metric: EC90 (nM)
All answers are understood in nM, so give the number only.

Recorded EC90, per entry:
- Chemical smiles: "CN(C)[C@@H](C(=O)N1CCC[C@H]1c1ncc(-c2ccc3c(c2)O[C@@H](c2ccccc2)n2c-3cc3cc(-c4cnc([C@@H]5CCCN5C(=O)[C@@H](c5ccccc5)N(C)C)[nH]4)ccc32)[nH]1)c1ccccc1"
  EC90 / nM: 2.1
- Chemical smiles: "COC(=O)N[C@H](C(=O)N1CCC[C@H]1c1ncc(-c2ccc3c(c2)O[C@@H](c2ccccc2)n2c-3cc3cc(-c4cnc([C@@H]5CCCN5C(=O)[C@@H](NC(=O)OC)C5CCOCC5)[nH]4)ccc32)[nH]1)C(C)C"
  EC90 / nM: 0.6
- Chemical smiles: "CC[C@H](NC(=O)OC)C(=O)N1CCC[C@H]1c1ncc(-c2ccc3c(c2)O[C@@H](c2ccccc2)n2c-3cc3cc(-c4cnc([C@@H]5CCCN5C(=O)[C@H](CC)NC(=O)OC)[nH]4)ccc32)[nH]1"
  EC90 / nM: 1.6
- Chemical smiles: "COC(=O)N[C@H](C(=O)N1CCC[C@H]1c1ncc(-c2ccc3c(c2)cc2n3[C@H](c3ccccc3)Oc3cc(-c4cnc([C@@H]5CCCN5C(=O)[C@@H](NC(=O)OC)[C@@H](C)OC)[nH]4)ccc3-2)[nH]1)C(C)C"
  EC90 / nM: 1.1

## Input What does the record list as EC90 for COC(=O)N[C@H](C(=O)N1CCC[C@H]1c1ncc(-c2ccc3c(c2)O[C@@H](c2ccccc2)n2c-3cc3cc(-c4cnc([C@@H]5CCCN5C(=O)[C@@H](NC(=O)OC)C5CCCC5)[nH]4)ccc32)[nH]1)C1CCCC1 ?
## Output 4.1
